Tested on: EAC cells
Assay: Trypan blue dye exclusion assay, EAC
Assay type: cell-based, mouse
Conditions: Mus musculus, 48 h, read-out: IC50 value (μM) against EAC cells, Trypan blue assay
measured-metric: IC50 (µM)
Write the answer as a number in µM, unit excluded.

INPUT: Supply IC50 measured with EAC cells for Cc1ccccc1OCC(=O)NNC(=O)C1CN(Cc2ccccc2)CCO1 (stereo not shown) .
OUTPUT: 6.8

---

Test system: PBMC cells
Assay: Trypan blue dye exclusion assay, PBMC
Type: cell-based, human
Conditions: 48 h, read-out: IC50 value (μM) against PBMC cells, Trypan blue assay
measured-metric: IC50 (µM)
Give the value in µM but do not write µM after it.

INPUT: Output measured IC50 for this item: N.N.[Cl][Pt][Cl] [Cisplatin, reference compound]
OUTPUT: 96.1
